Target: T1, IL-23R (human, UniProt Q5VWK5 24-629)
T1 sequence (looked up): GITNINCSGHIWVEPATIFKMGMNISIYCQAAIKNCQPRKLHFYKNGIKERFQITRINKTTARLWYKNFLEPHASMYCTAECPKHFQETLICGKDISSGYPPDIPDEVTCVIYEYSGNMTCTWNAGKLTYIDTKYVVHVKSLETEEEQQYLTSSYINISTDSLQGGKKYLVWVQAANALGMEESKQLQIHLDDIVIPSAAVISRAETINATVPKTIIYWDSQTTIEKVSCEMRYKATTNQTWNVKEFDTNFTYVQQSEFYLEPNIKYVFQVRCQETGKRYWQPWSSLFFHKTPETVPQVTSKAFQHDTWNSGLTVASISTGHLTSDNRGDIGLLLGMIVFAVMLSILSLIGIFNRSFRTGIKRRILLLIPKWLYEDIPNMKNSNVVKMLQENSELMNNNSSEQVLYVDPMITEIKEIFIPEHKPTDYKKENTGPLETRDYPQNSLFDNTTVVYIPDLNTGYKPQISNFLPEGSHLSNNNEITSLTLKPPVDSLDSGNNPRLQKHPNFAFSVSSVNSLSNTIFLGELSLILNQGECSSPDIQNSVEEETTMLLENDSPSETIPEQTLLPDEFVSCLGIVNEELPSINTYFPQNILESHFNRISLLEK
Assay: cell-based or functional assay
Bridge positions count the residues as written; N and C are the ends. Square brackets hold non-standard residues; d marks the D form. Trp(7-OMe) = COc1cccc2c(C[C@H](N)C(=O)O)c[nH]c12; Trp(7-Me) = Cc1cccc2c(C[C@H](N)C(=O)O)c[nH]c12; 2Nal = N[C@@H](Cc1ccc2ccccc2c1)C(=O)O; AEF = NCCOc1ccc(C[C@H](N)C(=O)O)cc1; Cit = NC(=O)NCCC[C@H](N)C(=O)O; Pen = CC(C)(S)[C@H](N)C(=O)O; αMeK = C[C@](N)(CCCCN)C(=O)O; Aib = CC(C)(N)C(=O)O
Listing: pStat3 HTRF (nM) IC50 of selected binders

INSERT INTO results (binder, observed_result) VALUES
  ('Ac-[Pen]NT[Trp(7-Me)][Cit][Pen][AEF][2Nal][αMeK]K(Ac)N[Aib][dK]-NH2 (disulfide 1-6; SMILES CC(=O)NCCCC[C@H](NC(=O)[C@](C)(CCCCN)NC(=O)[C@H](Cc1ccc2ccccc2c1)NC(=O)[C@H](Cc1ccc(OCCN)cc1)NC(=O)[C@H]1NC(=O)[C@H](CCCNC(N)=O)NC(=O)[C@H](Cc2c[nH]c3c(C)cccc23)NC(=O)[C@H]([C@@H](C)O)NC(=O)[C@H](CC(N)=O)NC(=O)[C@@H](NC(C)=O)C(C)(C)SSC1(C)C)C(=O)N[C@@H](CC(N)=O)C(=O)NC(C)(C)C(=O)N[C@H](CCCCN)C(N)=O) [SEQ ID NO: 344]', '< 1 nM');

Please look at the following binder next.
Input: Give its pStat3 HTRF (nM) IC50 value. Item: Ac-[Pen]NT[Trp(7-OMe)][Cit][Pen][AEF][2Nal][αMeK]K(Ac)N[dK]-NH2 (disulfide 1-6; SMILES COc1cccc2c(C[C@@H]3NC(=O)[C@H]([C@@H](C)O)NC(=O)[C@H](CC(N)=O)NC(=O)[C@@H](NC(C)=O)C(C)(C)SSC(C)(C)[C@@H](C(=O)N[C@@H](Cc4ccc(OCCN)cc4)C(=O)N[C@@H](Cc4ccc5ccccc5c4)C(=O)N[C@@](C)(CCCCN)C(=O)N[C@@H](CCCCNC(C)=O)C(=O)N[C@@H](CC(N)=O)C(=O)N[C@H](CCCCN)C(N)=O)NC(=O)[C@H](CCCNC(N)=O)NC3=O)c[nH]c12) [SEQ ID NO: 300]
Output: > 100 nM
